Molecular target: T1, recombinant human domain 1-3His6 of the cation-independent mannose-6-phosphate receptor (human, UniProt P11717 41-467)
T1 construct: Biotinylated (NHS-PEG4-biotin) for BLI; Glycosylated; also called hDom1-3His6; hCI-M6PRD1-D3
Assay: BLI exp 1, dissoc pH 7.4
Attribute Measured: Kd (nM)
Quick reminder: number only, in nM, skip the unit.

Some binders with recorded Kd:
anti-CI-M6PR VHH8 (VHH, His6-tagged (Pichia pastoris)) VHH: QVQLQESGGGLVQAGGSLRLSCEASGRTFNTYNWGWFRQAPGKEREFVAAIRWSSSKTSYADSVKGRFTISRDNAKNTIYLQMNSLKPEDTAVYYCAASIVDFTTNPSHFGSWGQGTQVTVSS
1.69
anti-CI-M6PR VHH4 (VHH, His6-tagged; made in Pichia pastoris) VHH: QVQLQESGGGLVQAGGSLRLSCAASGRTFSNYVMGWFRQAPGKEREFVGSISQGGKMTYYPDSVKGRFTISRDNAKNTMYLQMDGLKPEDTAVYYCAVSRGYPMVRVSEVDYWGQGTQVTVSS
2.33

Note: attention shifts to another entry.
Answer with reported Kd of anti-CI-M6PR VHH6 (VHH, His6-tagged; made in E. coli) VHH: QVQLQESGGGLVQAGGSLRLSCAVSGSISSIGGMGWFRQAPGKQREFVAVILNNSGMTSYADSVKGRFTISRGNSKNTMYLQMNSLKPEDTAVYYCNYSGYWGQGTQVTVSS
3.35

Hey, just so you know, these numbers are from patent US20250263490A1.
